All figures here come from PubChem BioAssay (NCI).

System: NCI-H522 lung
Test: NCI-60 one-dose screen, 48 h (100 = growth as untreated, 0 = no growth, -100 = all killed)
Details: 10 µM unless noted
About 83,000 compounds went through this panel and 20% of them were active in at least one assay; those are over-represented in the sample as a whole.
quantityName: growth (%)
State the answer as a number, implicitly in %.

Entry under review: COc1ccc2c(c1)Oc1nc(N)c(C#N)c(N)c1C2Sc1ccc(SC)cc1 (centres undefined) . Reported growth?
-81.5

Please look up its growth: NS(=O)(=O)c1ccc(-n2nc(-c3ccccc3)ccc2=O)cc1
89.9

Tell me the measured growth of C=C1C(=O)O[C@H]2[C@H]1CC/C(COC(=O)NCc1nc3ccccc3[nH]1)=C\CC[C@@]1(C)O[C@@H]21 , please.
-43.9

For the molecule C#C[C@@]1(O)[C@@H](CO)O[C@@H](n2cc(-c3ccco3)c3c(N)ncnc32)[C@@H]1O , what growth is on record?
61.7

Name the recorded growth for COc1ccc(Sc2[nH]c(C(C)=O)c3ccccc23)cc1 .
-7.2

Would you kindly share the measured growth for CCN(CC)c1ccc2c(c1)Oc1nc(N)c(C#N)c(N)c1C2Sc1ccc(OC)cc1 (centres undefined) ?
-61.9

Which measured growth value corresponds to COc1ccc(C(=O)c2cc(OC)c(OC)c(OC)c2)cc1OC(=O)C(Cl)(Cl)Cl ?
-13.3

Consider the molecule Cc1ccc(C(=O)/C(=C/c2ccc([N+](=O)[O-])cc2)S(=O)Cc2ccccc2)cc1 (centres undefined) and give its measured growth.
-32

Endpoint output: growth of CC(=O)[C@@H]1CC[C@]2(C(=O)O)CC[C@]3(C)[C@H](CC[C@@H]4[C@@]5(C)Cc6c([nH]c7ccccc67)C(C)(C)[C@@H]5CC[C@]43C)[C@@H]12 . Value?
46.4
